Target: Tyrosine-protein kinase JAK3 (Homo sapiens)
Sequence (P52333 whole entry): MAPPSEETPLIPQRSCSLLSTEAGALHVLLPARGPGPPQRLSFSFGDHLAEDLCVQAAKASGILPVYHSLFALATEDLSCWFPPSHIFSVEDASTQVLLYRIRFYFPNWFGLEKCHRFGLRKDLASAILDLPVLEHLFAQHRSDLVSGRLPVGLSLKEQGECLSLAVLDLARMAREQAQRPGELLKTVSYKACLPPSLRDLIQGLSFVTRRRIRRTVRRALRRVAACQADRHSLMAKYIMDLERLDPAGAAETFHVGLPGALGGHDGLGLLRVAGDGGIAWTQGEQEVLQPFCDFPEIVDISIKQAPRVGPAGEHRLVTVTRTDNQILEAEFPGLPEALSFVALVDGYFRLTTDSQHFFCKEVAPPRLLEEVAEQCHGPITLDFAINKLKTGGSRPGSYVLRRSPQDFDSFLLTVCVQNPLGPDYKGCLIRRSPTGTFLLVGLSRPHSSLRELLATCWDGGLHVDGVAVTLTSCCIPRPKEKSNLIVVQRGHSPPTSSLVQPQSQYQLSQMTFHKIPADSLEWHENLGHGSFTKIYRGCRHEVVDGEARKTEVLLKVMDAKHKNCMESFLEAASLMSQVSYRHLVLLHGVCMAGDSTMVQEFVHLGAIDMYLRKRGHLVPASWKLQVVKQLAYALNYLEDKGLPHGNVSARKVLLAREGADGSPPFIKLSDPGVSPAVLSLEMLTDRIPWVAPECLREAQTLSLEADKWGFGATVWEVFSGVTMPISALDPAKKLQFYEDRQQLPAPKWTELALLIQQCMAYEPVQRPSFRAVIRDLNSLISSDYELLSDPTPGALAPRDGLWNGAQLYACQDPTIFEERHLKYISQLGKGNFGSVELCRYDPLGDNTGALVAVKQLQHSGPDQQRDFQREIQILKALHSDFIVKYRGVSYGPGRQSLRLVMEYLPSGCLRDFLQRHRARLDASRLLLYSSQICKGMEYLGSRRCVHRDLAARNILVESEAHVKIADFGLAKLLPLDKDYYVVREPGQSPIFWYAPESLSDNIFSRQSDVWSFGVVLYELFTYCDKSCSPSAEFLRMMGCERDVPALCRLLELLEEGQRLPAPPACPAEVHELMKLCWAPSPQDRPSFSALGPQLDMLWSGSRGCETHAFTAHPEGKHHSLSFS
Assay: Inhibition of JAK3 (unknown origin) using biotinylated poly-EY peptide as substrate after 60 mins by HTRF assay
experimental endpoint: IC50 (nM)

[1] Cc1cc(Nc2nc(N[C@@H](C)c3ccc(F)cn3)c(F)c(N3CCNCC3)n2)n[nH]1
[2] Cc1cc(Nc2nc(N[C@@H](C)c3ccc(F)cn3)c(F)c(N3CCN(C)CC3)n2)n[nH]1
[3] Cc1cc(Nc2nc(O[C@@H](C)c3ncc(F)cc3F)c(F)c(N3CCOCC3)n2)n[nH]1
[4] Cc1cc(Nc2nc(N[C@@H](C)c3ccc(F)cn3)c(F)c(N3CCS(=O)(=O)CC3)n2)n[nH]1
[5] Cc1cnc(Nc2nc(N[C@@H](C)c3ncc(F)cn3)c(F)c(N3CCOCC3)n2)s1
Prompt: Order these compounds (above) by their IC50, from the smallest value upward. Write the labels, ordered according to the request.
Completion: 4, 2, 1, 3, 5

====

Assay: Total plasma concentration in nude mouse allografted with mouse Ba/F3 cells expressing JAK2 TEL domain administered as po qd measured at 2 hrs
Assay type: ADME, organism-based, BaF3
experimental endpoint: concentration at 2 h (ng/mL)
State just the number; it will be interpreted in ng/mL.

// Cc1cnc(Nc2nc(N[C@@H](C)c3ncc(F)cn3)c(F)c(N3CCOCC3)n2)s1 : concentration at 2 h value = 463

The reported numbers originate from ChEMBL document CHEMBL2380256.
